For each entry below, report its viability at 72 h, 0.000762939 uM value.
# Test: Cytotoxicity assay (CellTiter-Glo, 72 h), MESO-1
# Format: cell-based
# Conditions used: human, MESO-1 malignant pleural mesothelioma cells, conc 0.000762939 uM; raw replicate data; read-out: MESO1 viability (%)
One number for each entry, in %.

Some solved cases for reference:
| Compound | Units label | Test value |
| --- | --- | --- |
| CO[C@H]1C[C@@H]2CC[C@@H](C)[C@@](O)(O2)C(=O)C(=O)N2CCCC[C@H]2C(=O)O[C@H]([C@H](C)C[C@@H]2CC[C@@H](O)[C@H](OC)C2)CC(=O)[C@H](C)/C=C(\C)[C@@H](O)[C@@H](OC)C(=O)[C@H](C)C[C@H](C)/C=C/C=C/C=C/1C [Compound 1, rapamycin, reference compound] | % | 73.1 |
| COC1CC2CCC(C)C(O)(O2)C(=O)C(=O)N2CCCCC2C(=O)OC(C(C)CC2CCC(O)C(OC)C2)CC(=O)C(C)C=C(C)C(O)C(OC)C(=O)C(C)CC(C)C=CCCC=C1C (stereo not drawn) [Compound 15, 19,20-dihidro-rapamycin] | % | 93.3 |

The record that follows has no viability at 72 h, 0.000762939 uM shown yet.
**Query** Form field: reported viability at 72 h, 0.000762939 uM of COC1CC2CCC(C)C(O)(O2)C(=O)C(=O)N2CCCCC2C(=O)OC(C(C)CC2CCC(O)C(OC)C2)CC(O)CC(=O)C(C)C=C(C)C(O)CC(=O)C(C)CC(C)C=CC=CC=C1C (stereo not drawn) [Compound 13]
**Result** 96.5

----------
# Test: Cytotoxicity assay (CellTiter-Glo, 72 h), SKOV-3
# Format: cell-based, human
# Conditions used: human, SKOV-3 cells (ovarian adenocarcinoma), conc 0.000762939 uM; raw replicate data; read-out: SKOV3 viability (%)
Assay readout: viability at 72 h, 0.000762939 uM
Returns: string containing the number followed by the unit.

| Molecule | viability at 72 h, 0.000762939 uM |
| --- | --- |
| COC1CC2CCC(C)C(O)(O2)C(=O)C(=O)N2CCCCC2C(=O)OC(C(C)CC2CCC(O)C(OC)C2)CCC(C)C=C(C)C(O)C(OC)C(=O)C(C)CC(C)C=CC=CC=C1C (stereo not drawn) [Compound 16, 32-desketorapamycin] | 84.9% |
| COC1CC2CCC(C)C(O)(O2)C(=O)C(=O)N2CCCCC2C(=O)OC(C(C)CC2CCC(O)C(OC)C2)CC(=O)C(C)C=C(C)C(O)CC(=O)C(C)C=C(C)C=CC=CC=C1C (stereo not drawn) [Compound 14] | 102% |

The record that follows has no viability at 72 h, 0.000762939 uM shown yet.
**Query** Form field: reported viability at 72 h, 0.000762939 uM of CO[C@H]1C[C@@H]2CC[C@@H](C)[C@@](O)(O2)C(=O)C(=O)N2CCCC[C@H]2C(=O)O[C@H]([C@H](C)C[C@@H]2CC[C@@H](O)[C@H](OC)C2)CC(=O)[C@H](C)/C=C(\C)[C@@H](O)[C@@H](OC)C(=O)[C@H](C)C[C@H](C)/C=C/C=C/C=C/1C [Compound 1, rapamycin, reference compound]
**Result** 62.9%
